// reported Human liver S9 remaining ratio per item
assay: Metabolic stability test in liver S9 (Test Example [2]); format: in vitro ADME, human; conditions: human liver S9 2 mg protein/mL, 37° C., 60 minutes of incubation vs 0 minute
Numbers only; they are read as %.

Cc1ccc(N2c3cccc(C(=O)Nc4ccc(OCC(C)C)nc4)c3OC[C@@H]2CO)nc1: 50.4
Cc1ccc(N2c3cccc(C(=O)Nc4ccc(OCC(C)C)c(F)c4)c3OC[C@@H]2CO)nc1: 54.5
O=C(Nc1ccc(C(F)(F)F)cc1)c1cccc2c1OCCN2c1ncc(CO)cc1Cl: 90.1
O=C(Nc1ccc(OCC(F)(F)F)cc1)c1cccc2c1OCCN2c1ncc(CO)cc1Cl: 89.4
O=C(Nc1ccc(OC(F)(F)F)cc1)c1cccc2c1OCCN2c1ncc(CO)cc1Cl: 86.3

Could you please provide reported Human liver S9 remaining ratio for `Cc1ccc(N2c3cccc(C(=O)Nc4ccc(OC(C)C)c(F)c4)c3OC[C@@H]2CO)nc1` ? Thanks!
66.7

Could you please provide reported Human liver S9 remaining ratio for `Cc1ccc(N2c3cccc(C(=O)Nc4ccc(OC(F)(F)F)c(Cl)c4)c3OC[C@@H]2CO)nc1` ? Thanks!
82.3

Could you please provide reported Human liver S9 remaining ratio for `CCOc1c(F)cc(NC(=O)c2cccc3c2OC[C@H](CO)N3c2ccc(C)cn2)cc1F` ? Thanks!
59.6

Could you please provide reported Human liver S9 remaining ratio for `Cc1ccc(N2c3cccc(C(=O)Nc4ccc(OC(C)(C)C)nc4)c3OC[C@@H]2CO)nc1` ? Thanks!
82.2

Could you please provide reported Human liver S9 remaining ratio for `Cc1ccc(N2c3cccc(C(=O)Nc4ccc(C(F)(F)F)nc4)c3OC[C@@H]2CO)nc1` ? Thanks!
62.9

Could you please provide reported Human liver S9 remaining ratio for `Cc1ccc(N2c3cccc(C(=O)Nc4ccc(OCC(C)(C)C)nc4)c3OC[C@@H]2CO)nc1` ? Thanks!
39.7

Could you please provide reported Human liver S9 remaining ratio for `Cc1ccc(N2c3cccc(C(=O)Nc4ccc(OC(F)(F)F)cc4)c3OC[C@@H]2CO)nc1` ? Thanks!
77.3

Sourced from patent US7906508B2
